# System: A549 cell
# Experiment Notes: Cytotoxicity assay (MTS/MTT), A549 cells
# Assay type: cell-based, human
# Experimental Context: Homo sapiens, A549; read-out: Half-Inhibitory Concentration of Cells Growth (EC50), A549 cell

Compound	EC50 [nM]
COc1cccc2c1C(=O)c1c(O)c3c(c(O)c1C2=O)C[C@@](O)(C(=O)CO)C[C@@H]3O[C@H]1C[C@H](N)[C@H](O)[C@H](C)O1 [Doxorubicin, doxorubicin, reference compound]	660

---

# Tested on: HCT-8 cell
# Experiment Notes: Cytotoxicity assay (MTS/MTT), HCT-8 cells
# Assay type: cell-based, human
# Experimental Context: Homo sapiens, HCT-8; read-out: Half-Inhibitory Concentration of Cells Growth (EC50), HCT-8 cell
Observed Property: EC50 (nM)

Molecule	Measurement Target	Assay Value
COc1cccc2c1C(=O)c1c(O)c3c(c(O)c1C2=O)C[C@@](O)(C(=O)CO)C[C@@H]3O[C@H]1C[C@H](N)[C@H](O)[C@H](C)O1 [Doxorubicin, doxorubicin, reference compound]	HCT-8 cell	900

---

# Tested on: HCT-8 cell
# Experiment Notes: Cytotoxicity assay (MTS/MTT), HCT-8 cells
# Type: cell-based, human
# Experimental Context: HCT-8 cell; read-out: Half-Inhibitory Concentration of Cells Growth (EC50), HCT-8 cell
pEC50: −log10 of the molar value.
pEC50: recorded values

Molecule	pEC50
COc1cccc2c1C(=O)c1c(O)c3c(c(O)c1C2=O)CC(O)(C(=O)COC(=O)CCC(=O)O)CC3OC1CC(n2cccc2)C(O)C(C)O1 (stereo not drawn)	5.73
COc1cccc2c1C(=O)c1c(O)c3c(c(O)c1C2=O)CC(O)(C(=O)COC(=O)C(C)N)CC3OC1CC(n2cccc2)C(O)C(C)O1.Cl (stereo not drawn) [Example 38, hydrochloride]	6.23
COc1cccc2c1C(=O)c1c(O)c3c(c(O)c1C2=O)C[C@@](O)(C(=O)CO)C[C@@H]3O[C@H]1C[C@H](n2cccc2)[C@H](O)[C@H](C)O1	6.31

---

# System: Lovo cells
# Experiment Notes: Cytotoxicity assay (MTS/MTT), growth inhibition of Lovo cells
# Assay type: cell-based, human
# Experimental Context: concentration of 1 μM
# Method: LOVO: human colon cancer cell strains; Cells were seeded into RPMI 1640 cell culture solution containing 10% fetal bovine serum (100 ku/L of penicillin and 100 ku/L of streptomycin were supplemented). The culture dish was placed in a cell incubator containing 5% CO2 at 37° C. The culture solution was changed once every 2-3 days. […] Data was represented by x±s. […] The half effective concentration (IC50: μg/ml) for inhibiting the proliferation of tumor cells was calculated. […]

Molecule	Growth Inhibition Rate (%)
COc1cccc2c1C(=O)c1c(O)c3c(c(O)c1C2=O)CC(O)(C(=O)COC(=O)CCC(=O)O)CC3OC1CC(n2cccc2)C(O)C(C)O1 (stereo not shown) [Example 13]	76.05
COc1cccc2c1C(=O)c1c(O)c3c(c(O)c1C2=O)CC(O)(C(=O)COC(=O)C(C)N)CC3OC1CC(n2cccc2)C(O)C(C)O1.Cl (stereo not shown) [Example 38]	78.44
COc1cccc2c1C(=O)c1c(O)c3c(c(O)c1C2=O)CC(O)(C(=O)CO)CC3OC1CC(N2C(=O)CCC2=O)C(O)C(C)O1 (stereo not shown) [Example 7, 3′-succinimidodoxorubicin]	83.31
COc1cccc2c1C(=O)c1c(O)c3c(c(O)c1C2=O)C[C@@](O)(C(=O)CO)C[C@@H]3O[C@H]1C[C@H](n2cccc2)[C@H](O)[C@H](C)O1 [Example 5, 3′-pyrrolyldoxorubicin]	67.25
